Value source: patent US20030229005A1

# assayed-system: T1, collagenase 1 (UniProt P03956 100-469, limits assumed)
# T1 sequence (looked up): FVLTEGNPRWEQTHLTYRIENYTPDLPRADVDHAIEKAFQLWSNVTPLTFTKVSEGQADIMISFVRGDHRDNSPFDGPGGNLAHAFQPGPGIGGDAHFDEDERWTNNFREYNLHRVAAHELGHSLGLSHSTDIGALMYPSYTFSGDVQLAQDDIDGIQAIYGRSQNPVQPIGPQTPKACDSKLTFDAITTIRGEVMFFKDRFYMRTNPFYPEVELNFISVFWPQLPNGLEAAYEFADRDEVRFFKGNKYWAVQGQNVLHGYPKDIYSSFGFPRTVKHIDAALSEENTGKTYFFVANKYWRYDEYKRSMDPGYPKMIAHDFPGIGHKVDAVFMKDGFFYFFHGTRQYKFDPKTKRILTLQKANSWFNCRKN
# experiment-summary: cell-based or functional assay
*1 amine or outer side, *2 acyl side, *3 side chain or, on linkers, in order; H or OH if unused. [ ]: non-standard residue; d: D form. The star is where a group is joined. Dnp = O=[N+]([O-])c1ccc(*)c([N+](=O)[O-])c1; C(Me) = CSC[C@H](N[*:1])C(=O)[*:2]
quantity-name: Selectivity v. Coll-3 (unitless)
Only the number, expressed in unitless, is required.

Could you share which Selectivity v. Coll-3 value was measured for Dnp-GPYGMRA-NH2 (SMILES CSCC[C@H](NC(=O)CNC(=O)[C@H](Cc1ccc(O)cc1)NC(=O)[C@@H]1CCCN1C(=O)CNc1ccc([N+](=O)[O-])cc1[N+](=O)[O-])C(=O)N[C@@H](CCCNC(=N)N)C(=O)N[C@@H](C)C(N)=O) [Dnp-GPYGMRA-NH2] ?
212

Same again, this time with Dnp-GPSPFHV[C(Me)]-NH2 (SMILES CSC[C@H](NC(=O)[C@@H](NC(=O)[C@H](Cc1c[nH]cn1)NC(=O)[C@H](Cc1ccccc1)NC(=O)[C@@H]1CCCN1C(=O)[C@H](CO)NC(=O)[C@@H]1CCCN1C(=O)CNc1ccc([N+](=O)[O-])cc1[N+](=O)[O-])C(C)C)C(N)=O) [Dnp-GPSPFHVC(Me)-NH2]
1570
